- experimental system: oxy-Mb (Homo sapiens, UniProt P02144)
- Sequence (P02144 whole entry): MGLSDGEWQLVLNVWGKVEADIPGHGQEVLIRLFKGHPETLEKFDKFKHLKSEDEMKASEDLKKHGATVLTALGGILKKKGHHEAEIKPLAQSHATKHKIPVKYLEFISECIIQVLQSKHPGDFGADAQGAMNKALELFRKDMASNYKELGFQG
- test protocol: Oxidation of purified oxy-Mb to met-Mb (UV-vis)
- Format: biochemical
- condition: 10 μM agent, oxy-Mb 40 μM, 1–3 h/20 °C
experimental endpoint: oxy-Mb oxidation (in words)

- CCN(C)C([S-])=NN=C(c1ccccn1)c1ccccn1.[Cl-].[Pd+2] [[Pd(Dp4e4mT)Cl]]: minimal impact
- CCN(C)C([S-])=NN=C(c1ccccn1)c1ccccn1.CCN(C)C([S-])=NN=C(c1ccccn1)c1ccccn1.[Co+3] [[Co(Dp4e4mT)2]^+]: minimal impact

---

Recorded measurements of Redox potential (mV vs. NHE), one per entry
- test protocol: Cyclic voltammetry (redox potentials)
- Format: physicochemical
- condition: 1 mM in MeCN/H2O 7 : 3 (v/v) + 0.1 M Et4NClO4, sweep rate 100 mV s^−1
experimental endpoint: Redox potential (mV vs. NHE)

- CCN(C)C([S-])=NN=C(c1ccccn1)c1ccccn1.CCN(C)C([S-])=NN=C(c1ccccn1)c1ccccn1.[Fe+3] [[Fe(Dp4e4mT)2]^+]: +70 mV vs. NHE
- CN(C)C([S-])=NN=C(c1ccccn1)c1ccccn1.CN(C)C([S-])=NN=C(c1ccccn1)c1ccccn1.[Fe+3] [[Fe(Dp44mT)2]^+, reference compound]: +166 mV vs. NHE
- CCN(C)C([S-])=NN=C(c1ccccn1)c1ccccn1.CCN(C)C([S-])=NN=C(c1ccccn1)c1ccccn1.[Ni+2] [[Ni(Dp4e4mT)2]]: +647 mV vs. NHE
- CCN(C)C([S-])=NN=C(c1ccccn1)c1ccccn1.[Cl-].[Cu+2] [[Cu(Dp4e4mT)Cl]]: −151 mV vs. NHE
- CN(C([S-])=NN=C(c1ccccn1)c1ccccn1)C1CCCCC1.CN(C([S-])=NN=C(c1ccccn1)c1ccccn1)C1CCCCC1.[Fe+3] [[Fe(DpC)2]^+, reference compound]: +149 mV vs. NHE

These entries and their values trace back to paper PMC10793205.
